B1: APBB1IP (parent)
chain: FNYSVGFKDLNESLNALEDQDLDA

# Variants of: B1
# test_method_notes: protein stability index of a GFP-peptide fusion (GPS, HEK-293T) (PSI 1-6); higher = more stable;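 note: lentivirally expressed fusions sorted by FACS into six bins by GFP to DsRed ratio, PSI derived from sequencing read proportions per bin multiplied by bin number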
# particulars: c terminus: a fixed tail appended
measured_endpoint: protein stability index
When you answer, write just the number.

Task item: Entry under review: FNYSVGFKDLNESMNALEDQDLDA [L14M] . Reported protein stability index?
Reply: 4.61

Task item: Entry under review: FNYSVGFKDLNESLNALHDQDLDA [E18H] . Reported protein stability index?
Reply: 3.92

Task item: Entry under review: FNSSVGFKDLNESLNALEDQDLDA [Y3S] . Reported protein stability index?
Reply: 4.76

Task item: Entry under review: FNYSVGFEDLNESLNALEDQDLDA [K8E] . Reported protein stability index?
Reply: 5.1

Task item: Entry under review: FNYSVGFKDLNESLNALEDQDLDN [A24N] . Reported protein stability index?
Reply: 4.5

Task item: Entry under review: FNYSVGFKDLNESLNAWEDQDLDA [L17W] . Reported protein stability index?
Reply: 3.85

Task item: Entry under review: FNYSVGFKDLNESLNALEWQDLDA [D19W] . Reported protein stability index?
Reply: 3.42

Task item: Entry under review: FNYSVGFKDLNESLNALEDQPLDA [D21P] . Reported protein stability index?
Reply: 3.77

Task item: Entry under review: FNYYVGFKDLNESLNALEDQDLDA [S4Y] . Reported protein stability index?
Reply: 3.42

Task item: Entry under review: FNYSVGFDDLNESLNALEDQDLDA [K8D] . Reported protein stability index?
Reply: 5.05

Task item: Entry under review: FNRSVGFKDLNESLNALEDQDLDA [Y3R] . Reported protein stability index?
Reply: 5.36

Task item: Entry under review: FNYSVGFVDLNESLNALEDQDLDA [K8V] . Reported protein stability index?
Reply: 3.52

Task item: Entry under review: FNYLVGFKDLNESLNALEDQDLDA [S4L] . Reported protein stability index?
Reply: 3.71

Task item: Entry under review: FNYSVGFKDLNESLNALEDQDLDE [A24E] . Reported protein stability index?
Reply: 4.91

Task item: Entry under review: ENYSVGFKDLNESLNALEDQDLDA [F1E] . Reported protein stability index?
Reply: 5.53

Task item: Entry under review: GNYSVGFKDLNESLNALEDQDLDA [F1G] . Reported protein stability index?
Reply: 4.72

Task item: Entry under review: FNYSVGDKDLNESLNALEDQDLDA [F7D] . Reported protein stability index?
Reply: 5.21

Task item: Entry under review: FNYSVGFKDTNESLNALEDQDLDA [L10T] . Reported protein stability index?
Reply: 4.55

Task item: Entry under review: FNYSVGFKDLNESLNALPDQDLDA [E18P] . Reported protein stability index?
Reply: 4.51

Task item: Entry under review: FNYSVGFKDLNESHNALEDQDLDA [L14H] . Reported protein stability index?
Reply: 5.1

Task item: Entry under review: FNYSLGFKDLNESLNALEDQDLDA [V5L] . Reported protein stability index?
Reply: 4.55

Task item: Entry under review: FNYSVGFKDLNESLNALEDQDPDA [L22P] . Reported protein stability index?
Reply: 4.92

Task item: Entry under review: FNYSVGFKDLNESLNAHEDQDLDA [L17H] . Reported protein stability index?
Reply: 4.18

Task item: Entry under review: VNYSVGFKDLNESLNALEDQDLDA [F1V] . Reported protein stability index?
Reply: 4.66

Task item: Entry under review: FNYSVGFKNLNESLNALEDQDLDA [D9N] . Reported protein stability index?
Reply: 4.31

Task item: Entry under review: FNYSVGFKDLNESLNILEDQDLDA [A16I] . Reported protein stability index?
Reply: 4

Task item: Entry under review: FNYSVGFKDLNESLNKLEDQDLDA [A16K] . Reported protein stability index?
Reply: 4.36

Task item: Entry under review: FNYSVGFKDLNESLNASEDQDLDA [L17S] . Reported protein stability index?
Reply: 4.78

Task item: Entry under review: FNYSVGFKDLNESLNALETQDLDA [D19T] . Reported protein stability index?
Reply: 3.86

Task item: Entry under review: FNYSVGFKDNNESLNALEDQDLDA [L10N] . Reported protein stability index?
Reply: 4.75

Task item: Entry under review: FNYSVGFKDLNESSNALEDQDLDA [L14S] . Reported protein stability index?
Reply: 4.47

Task item: Entry under review: FNYSVHFKDLNESLNALEDQDLDA [G6H] . Reported protein stability index?
Reply: 3.71

Task item: Entry under review: FNYSVGFKRLNESLNALEDQDLDA [D9R] . Reported protein stability index?
Reply: 4.05

Task item: Entry under review: FNYSVGFKYLNESLNALEDQDLDA [D9Y] . Reported protein stability index?
Reply: 3.44

Task item: Entry under review: FNYSVGFKDFNESLNALEDQDLDA [L10F] . Reported protein stability index?
Reply: 3.95

Task item: Entry under review: FNYSVGFKDLNERLNALEDQDLDA [S13R] . Reported protein stability index?
Reply: 4.15

Task item: Entry under review: FNYSVWFKDLNESLNALEDQDLDA [G6W] . Reported protein stability index?
Reply: 2.32

Task item: Entry under review: FNYSVGFKDLNESLNALEVQDLDA [D19V] . Reported protein stability index?
Reply: 3.56

Task item: Entry under review: FNYSVGFKDLNESLRALEDQDLDA [N15R] . Reported protein stability index?
Reply: 3.64

Task item: Entry under review: FNYSVGFKDLNESLNALFDQDLDA [E18F] . Reported protein stability index?
Reply: 2.79

Task item: Entry under review: FAYSVGFKDLNESLNALEDQDLDA [N2A] . Reported protein stability index?
Reply: 2.07

Task item: Entry under review: FNYSVGFKDLNESLNALQDQDLDA [E18Q] . Reported protein stability index?
Reply: 3.98

Task item: Entry under review: FNYSVGFKDLNESLNALEDQDLDD [A24D] . Reported protein stability index?
Reply: 4.68

Task item: Entry under review: FNYSVGFKDLNESLKALEDQDLDA [N15K] . Reported protein stability index?
Reply: 4.77

Task item: Entry under review: FNYSVGFKDLNESLNALEDQWLDA [D21W] . Reported protein stability index?
Reply: 2.43

Task item: Entry under review: FNYSVGFKDLNESLNALEDQDKDA [L22K] . Reported protein stability index?
Reply: 4.86

Numbers sourced from the supplement of paper PMC10567573.
